Measured IC50 of individual entries
target: cortisol synthase (CYP11B1) (Macaca fascicularis)
Quantity Measured: IC50 (µM)

compound="NC(=O)c1cccc2c1OCC(c1cncc(C3(O)CCOCC3)c1)O2 (single isomer, unassigned) [Cpd 1B]" prefix_operator== recorded_result=24
compound="NC(=O)c1cccc2c1OCC(c1cncc(C3(O)CCCCC3)c1)O2 (single isomer, unassigned) [Cpd 11A]" prefix_operator== recorded_result=24
compound="NC(=O)c1cccc2c1OCC(c1cncc(OC3CCOCC3)c1)O2 (single isomer, unassigned) [Cpd 47A]" prefix_operator== recorded_result=8.5
compound="NC(=O)c1cccc2c1OCC(c1cncc(OC3CCOCC3)c1)O2 (single isomer, unassigned) [Cpd 47B]" prefix_operator== recorded_result=1.2
compound="NC(=O)c1cccc2c1OCC(c1cncc(CNC(=O)C3CC3)c1)O2 (single isomer, unassigned) [Cpd 14B]" prefix_operator=> recorded_result=30
compound="CS(=O)(=O)Cc1cncc(C2COc3c(C#N)cccc3O2)c1 (single isomer, unassigned) [Cpd 37A]" prefix_operator== recorded_result=25
compound="NC(=O)c1cccc2c1OCC(c1cncc(F)c1)O2 (single isomer, unassigned) [Cpd 51B]" prefix_operator== recorded_result=20

----------
molecular target: cortisol synthase (CYP11B1) (Macaca fascicularis)
Binning scheme for IC50: bottom range (below 1 µM), center range (1 µM to below 10 µM), top range (10 µM or more)

molecule="CC(C)C(=O)N1CCC(Oc2cncc(C3COc4c(cccc4C(N)=O)O3)c2)CC1 (single isomer, unassigned) [Cpd 48A]" group="center range"
molecule="NC(=O)c1cccc2c1OCC(c1cncc(-c3ccc(S(N)(=O)=O)cc3)c1)O2 (single isomer, unassigned) [Cpd 16B]" group="bottom range"
molecule="NC(=O)c1cccc2c1OCC(c1cncc3c1CCC3O)O2 (single isomer, unassigned) [Cpd 52AB]" group="bottom range"
molecule="CN(C)C(=O)COCc1cncc(C2COc3c(C#N)cccc3O2)c1 (single isomer, unassigned) [Cpd 42A]" group="top range"
molecule="NC(=O)c1cccc2c1OCC(c1cncc(C3(F)CCOCC3)c1)O2 (single isomer, unassigned) [Cpd 32B]" group="bottom range"
molecule="NC(=O)c1cccc2c1OCC(c1cncc(CN3CCOCC3=O)c1)O2 (single isomer, unassigned) [Cpd 15B]" group="top range"
molecule="CN(C)C(=O)COCc1cncc(C2COc3c(C#N)cccc3O2)c1 (single isomer, unassigned) [Cpd 42B]" group="center range"
molecule="NC(=O)c1cccc2c1OCC(c1cncc(CO)c1)O2 (single isomer, unassigned) [Cpd 20B]" group="center range"
molecule="CN1C(=O)CCC1c1cncc(C2COc3c(C#N)cccc3O2)c1 (single isomer, unassigned) [Cpd 35B]" group="center range"
molecule="CS(=O)(=O)Cc1cncc(C2COc3c(C#N)cccc3O2)c1 (single isomer, unassigned) [Cpd 37B]" group="center range"
molecule="C[C@H](O)c1c(F)cncc1C1COc2c(cccc2C(N)=O)O1 (single isomer, unassigned) [Cpd 56A]" group="top range"
molecule="CC(=O)N1CCC(Oc2cncc(C3COc4c(C#N)cccc4O3)c2)CC1 (single isomer, unassigned) [Cpd 38A]" group="top range"
molecule="CN(C)C(=O)Cc1cncc(C2COc3c(cccc3C(N)=O)O2)c1 (single isomer, unassigned) [Cpd 29A]" group="top range"
molecule="N#Cc1cccc2c1OCC(c1cncc(-c3ccc(S(N)(=O)=O)cc3)c1)O2 (single isomer, unassigned) [Cpd 40A]" group="top range"

----------
biological target: cortisol synthase (CYP11B1) (Macaca fascicularis, UniProt A0A2K5ULY1)
Measured log10 of IC50 of individual entries
Quantity Measured: log10 of IC50 (log10 of the value in µM)

compound="Cc1c(F)cncc1C1COc2c(cccc2C(N)=O)O1 (single isomer, unassigned) [Cpd 21B]" recorded_result=0.72
compound="CS(=N)(=O)Cc1cncc(C2COc3c(C#N)cccc3O2)c1 (single isomer, unassigned) [Cpd 62BB]" recorded_result=1.26
compound="NC(=O)c1cccc2c1OCC(c1cccnc1)O2 (single isomer, unassigned) [Cpd 4B]" recorded_result=0.40
compound="NC(=O)c1cccc2c1OCC(c1cncc(CO)c1)O2 (single isomer, unassigned) [Cpd 20A]" recorded_result=0.91
compound="CC(C)(O)c1c(F)cncc1C1COc2c(cccc2C(N)=O)O1 (single isomer, unassigned) [Cpd 58A]" recorded_result=1.36
compound="CC(C)C(=O)N1CCC(Oc2cncc(C3COc4c(cccc4C(N)=O)O3)c2)CC1 (single isomer, unassigned) [Cpd 48B]" recorded_result=-0.62
compound="N#Cc1cccc2c1OCC(c1cncc(CN3CCCCS3(=O)=O)c1)O2 (single isomer, unassigned) [Cpd 41B]" recorded_result=0.59
compound="CN1C(=O)CCC1c1cncc(C2COc3c(C#N)cccc3O2)c1 (single isomer, unassigned) [Cpd 35A]" recorded_result=-0.28
compound="NC(=O)c1cccc2c1OCC(c1cncc3c1CCC3O)O2 (single isomer, unassigned) [Cpd 52BB]" recorded_result=1.11
compound="CCOc1cncc(C2COc3c(cccc3C(N)=O)O2)c1 (single isomer, unassigned) [Cpd 45A]" recorded_result=-0.68
compound="CC(=O)N1CC[C@@H](Oc2cncc(C3COc4c(cccc4C(N)=O)O3)c2)C1 (single isomer, unassigned) [Cpd 18B]" recorded_result=0.04
compound="CC(=O)N1CCC(Oc2cncc(C3COc4c(cccc4C(N)=O)O3)c2)CC1 (single isomer, unassigned) [Cpd 12B]" recorded_result=0.30
compound="NC(=O)c1cccc2c1OCC(c1cncc(CC(=O)N3CCOCC3)c1)O2 (single isomer, unassigned) [Cpd 13B]" recorded_result=1.82
compound="NC(=O)c1cccc2c1OCC(c1cncc(CC(=O)N3CCC(F)(F)CC3)c1)O2 (single isomer, unassigned) [Cpd 30B]" recorded_result=1.38
compound="N#CC1(c2cncc(C3COc4c(cccc4C(N)=O)O3)c2)CC1 (single isomer, unassigned) [Cpd 2B]" recorded_result=-0.64
compound="NC(=O)c1cccc2c1OCC(c1cncc(C3(F)CCOCC3)c1)O2 (single isomer, unassigned) [Cpd 32A]" recorded_result=0.78
compound="NC(=O)c1cccc2c1OCC(c1cncc(C(O)C(F)(F)F)c1)O2 (single isomer, unassigned) [Cpd 49AB]" recorded_result=0.04
compound="Cc1ccncc1C1COc2c(cccc2C(N)=O)O1 (single isomer, unassigned) [Cpd 23B]" recorded_result=0.30
compound="N#Cc1cccc2c1OCC(c1cncc(CC(=O)N3CCOCC3)c1)O2 (single isomer, unassigned) [Cpd 43A]" recorded_result=1.34
compound="NC(=O)c1cccc2c1OCC(c1cncc(C3CCOCC3)c1)O2 (single isomer, unassigned) [Cpd 10B]" recorded_result=-0.64
compound="C[C@@H](O)c1c(F)cncc1C1COc2c(cccc2C(N)=O)O1 (single isomer, unassigned) [Cpd 57B]" recorded_result=1.18
compound="CCS(=O)(=O)NCc1cncc(C2COc3c(C#N)cccc3O2)c1 (single isomer, unassigned) [Cpd 54A]" recorded_result=1.36
compound="CS(=O)(=O)COc1cncc(C2COc3c(C#N)cccc3O2)c1 (single isomer, unassigned) [Cpd 44B]" recorded_result=1.11
compound="N#Cc1cccc2c1OCC(c1cncc(CC(=O)N3CC[C@@H](O)C3)c1)O2 (single isomer, unassigned) [Cpd 55A]" recorded_result=1.04

----------
As an illustration, consider measured pIC50 for molecules on cortisol synthase (CYP11B1) (Macaca fascicularis, UniProt A0A2K5ULY1).
pIC50: −log10 of the molar value.
Quantity Measured: pIC50

molecule="NC(=O)c1cccc2c1OCC(c1cncc(-c3ccc(S(N)(=O)=O)cc3)c1)O2 (single isomer, unassigned) [Cpd 16A]" prefix_operator== recorded_result=5.28
molecule="NC(=O)c1cccc2c1OCC(c1cncc(C3(O)CCCCC3)c1)O2 (single isomer, unassigned) [Cpd 11B]" prefix_operator== recorded_result=5.36
molecule="NC(=O)c1cccc2c1OCC(c1cncc(C3CCOCC3)c1)O2 (single isomer, unassigned) [Cpd 10A]" prefix_operator== recorded_result=5.47
molecule="CC(=O)N1CC(Oc2cncc(C3COc4c(cccc4C(N)=O)O3)c2)C1 (single isomer, unassigned) [Cpd 19A]" prefix_operator=< recorded_result=4.52
molecule="NC(=O)c1cccc2c1OCC(c1cncc(CNC(=O)C3CC3)c1)O2 (single isomer, unassigned) [Cpd 14A]" prefix_operator== recorded_result=4.92
molecule="NC(=O)c1cccc2c1OCC(c1cncc(O[C@@H]3CCOC3)c1)O2 (single isomer, unassigned) [Cpd 46A]" prefix_operator== recorded_result=5.15
molecule="N#Cc1cccc2c1OCC(c1cncc(C3(O)CCOCC3)c1)O2 (single isomer, unassigned) [Cpd 50B]" prefix_operator== recorded_result=5.48

----------
target: cortisol synthase (CYP11B1) (Macaca fascicularis); test: Inhibition of Cortisol Synthesis; format: biochemical, cynomolgus monkey; settings: cynomolgus adrenal gland mitochondria; 150 units of CYP11B1, 11-deoxycortisol as substrate, cortisol measured as product
pIC50: −log10 of the molar value.
Decision: pIC50 compared against 5; not below it gives 1 (yes), below it gives 0 (no).

molecule="CNC(=O)c1cccc2c1OCC(c1cncc(OC3CCN(C(C)=O)CC3)c1)O2 (single isomer, unassigned) [Cpd 33B]" group="0 (no)"
molecule="CCS(=O)(=O)NC(c1cncc(C2COc3c(cccc3C(N)=O)O2)c1)C1CC1 (single isomer, unassigned) [Cpd 60AB]" group="0 (no)"
molecule="CN1C(=O)CCC1c1cncc(C2COc3c(cccc3C(N)=O)O2)c1 (single isomer, unassigned) [Cpd 6AA]" group="1 (yes)"
molecule="CS(=N)(=O)Cc1cncc(C2COc3c(C#N)cccc3O2)c1 (single isomer, unassigned) [Cpd 62BA]" group="0 (no)"
molecule="NC(=O)c1cccc2c1OCC(c1cncc(C(F)F)c1)O2 (single isomer, unassigned) [Cpd 22A]" group="1 (yes)"
molecule="NC(=O)c1cccc2c1OCC(c1cncc(CN3CCCCS3(=O)=O)c1)O2 (single isomer, unassigned) [Cpd 3B]" group="1 (yes)"
molecule="NC(=O)c1cccc2c1OCC(c1cncc(C(F)(F)F)c1)O2 (single isomer, unassigned) [Cpd 9A]" group="1 (yes)"
molecule="N#Cc1cccc2c1OCC(c1cncc(CN3CCCCS3(=O)=O)c1)O2 (single isomer, unassigned) [Cpd 41A]" group="0 (no)"
molecule="NC(=O)c1cccc2c1OCC(c1cncc(CC(=O)N3CCC(F)(F)CC3)c1)O2 (single isomer, unassigned) [Cpd 30A]" group="0 (no)"
molecule="CCS(=O)(=O)NCc1cncc(C2COc3c(C#N)cccc3O2)c1 (single isomer, unassigned) [Cpd 54B]" group="0 (no)"
molecule="CC(=O)N1CC[C@H](Oc2cncc(C3COc4c(cccc4C(N)=O)O3)c2)C1 (single isomer, unassigned) [Cpd 17B]" group="0 (no)"
molecule="Cc1cncc(C2COc3c(cccc3C(N)=O)O2)c1 (single isomer, unassigned) [Cpd 59B]" group="1 (yes)"
molecule="N#Cc1cccc2c1OCC(c1cncc(CNC(=O)C3CC3)c1)O2 (single isomer, unassigned) [Cpd 39B]" group="0 (no)"
